target: ROCK2 (Homo sapiens); assay: ROCK2 kinase inhibition assay (LABCHIP 3000 Reader, FITC peptide substrate)
readout-type: IC50

{"compound": "Cc1nc(-c2ccccc2)sc1C(=O)N[C@H]1CC2(C1)C[C@H](Oc1ncccc1C(N)=O)C2 (some centres unmarked)", "IC50": "50 to 250 nM"}

Now for a further compound.
query: Fill in reported IC50 for this entry: CNC(=O)c1cccc(-c2ccc(C(N)=O)c(OC3CC4(CC(NC(=O)c5cnn6cc(OCC(C)(C)O)ccc56)C4)C3)c2)c1 (centres unmarked)
result: 5 to 50 nM

====

target: ROCK2 (Homo sapiens, UniProt O75116); test: ROCK2 kinase inhibition assay (LABCHIP 3000 Reader, FITC peptide substrate);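 further: rho kinase reaction read by separating phosphorylated from unphosphorylated peptide on chip, with inhibition of kinase activity computed per concentration across a dose-response series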
Sequence (O75116 whole entry, species assumed): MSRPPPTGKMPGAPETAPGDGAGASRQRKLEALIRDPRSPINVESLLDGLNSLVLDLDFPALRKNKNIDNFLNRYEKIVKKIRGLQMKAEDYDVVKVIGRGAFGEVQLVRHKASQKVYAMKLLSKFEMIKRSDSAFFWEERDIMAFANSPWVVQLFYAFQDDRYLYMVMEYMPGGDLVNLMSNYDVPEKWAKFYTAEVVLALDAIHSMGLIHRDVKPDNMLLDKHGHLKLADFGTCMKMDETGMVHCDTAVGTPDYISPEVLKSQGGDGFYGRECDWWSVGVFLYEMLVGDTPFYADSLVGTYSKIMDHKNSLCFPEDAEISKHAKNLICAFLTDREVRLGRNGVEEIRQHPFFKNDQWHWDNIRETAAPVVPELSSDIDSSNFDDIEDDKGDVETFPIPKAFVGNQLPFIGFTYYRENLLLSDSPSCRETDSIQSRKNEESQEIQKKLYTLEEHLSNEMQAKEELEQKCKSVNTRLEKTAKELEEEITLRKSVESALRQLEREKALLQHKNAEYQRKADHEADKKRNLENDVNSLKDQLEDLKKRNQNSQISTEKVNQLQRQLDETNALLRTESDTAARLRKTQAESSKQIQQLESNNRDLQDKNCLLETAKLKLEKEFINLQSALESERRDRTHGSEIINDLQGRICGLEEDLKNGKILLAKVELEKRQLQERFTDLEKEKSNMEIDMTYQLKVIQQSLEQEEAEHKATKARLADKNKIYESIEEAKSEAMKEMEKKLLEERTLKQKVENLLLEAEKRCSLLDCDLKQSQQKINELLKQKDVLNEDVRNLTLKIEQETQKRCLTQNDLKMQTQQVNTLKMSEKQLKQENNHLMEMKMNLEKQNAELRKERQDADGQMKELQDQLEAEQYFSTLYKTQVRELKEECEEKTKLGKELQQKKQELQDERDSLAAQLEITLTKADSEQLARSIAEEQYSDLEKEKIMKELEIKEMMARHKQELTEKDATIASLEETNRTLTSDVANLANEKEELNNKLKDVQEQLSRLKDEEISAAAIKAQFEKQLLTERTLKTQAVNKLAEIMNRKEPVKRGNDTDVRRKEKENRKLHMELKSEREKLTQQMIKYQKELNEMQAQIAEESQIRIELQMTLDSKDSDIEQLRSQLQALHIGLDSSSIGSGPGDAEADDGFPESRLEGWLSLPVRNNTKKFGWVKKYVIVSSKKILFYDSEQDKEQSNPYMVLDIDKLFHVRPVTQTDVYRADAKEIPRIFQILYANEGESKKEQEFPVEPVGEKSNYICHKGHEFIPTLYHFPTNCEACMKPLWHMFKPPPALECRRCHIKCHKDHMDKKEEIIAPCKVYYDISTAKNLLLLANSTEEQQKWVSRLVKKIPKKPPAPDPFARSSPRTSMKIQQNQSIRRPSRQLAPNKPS
# maps each entry to its IC50

Here is how some molecules turned out for IC50.
{"molecule": "NC(=O)c1ccccc1O[C@H]1CC2(C[C@H](NC(=O)c3cnn4cc(OC5CCS(=O)(=O)CC5)ccc34)C2)C1 (stereo partly shown) [Example 28]", "system": "ROCK2 (Homo sapiens, UniProt O75116)", "data-value": "< 5 nM"}
{"molecule": "Cc1noc(-c2cccc(C(=O)N[C@H]3CC4(C3)C[C@H](Oc3ncccc3C(N)=O)C4)c2)n1 (stereo partly shown) [Example 147]", "system": "ROCK2 (Homo sapiens, UniProt O75116)", "data-value": "250 to 2500 nM"}
{"molecule": "CC(C)(O)Cn1nc(C(=O)N[C@H]2CC3(C2)C[C@H](Oc2ncccc2C(N)=O)C3)c2ccc(Br)cc21 (stereo partly shown) [Example 81]", "system": "ROCK2 (Homo sapiens, UniProt O75116)", "data-value": "5 to 50 nM"}
{"molecule": "CC(C)(O)COc1ccc2c(C(=O)NC3CC4(C3)CC(Oc3cc(-c5cccc(C(N)=O)c5)ccc3C(N)=O)C4)cnn2c1 (stereo not shown) [Example 289]", "system": "ROCK2 (Homo sapiens, UniProt O75116)", "data-value": "< 5 nM"}
{"molecule": "NC(=O)c1ccccc1O[C@H]1CC2(C[C@H](NC(=O)c3cnn4ccc(OCCN5CCOCC5)cc34)C2)C1 (stereo partly shown) [Example 20]", "system": "ROCK2 (Homo sapiens, UniProt O75116)", "data-value": "5 to 50 nM"}

query: State, in one line, measured IC50 of NC(=O)c1ccccc1OC1CC2(CC(NC(=O)c3cnn4cc(OC5CCOC5)ccc34)C2)C1 (stereo not shown) [Example 4]
result: 5 to 50 nM

query: Hello, please tell me recorded IC50 for this one: NC(=O)c1cccnc1O[C@H]1CC2(C[C@H](NC(=O)c3cnc4cc(OCCN5CCCC5)ccn34)C2)C1 (stereo partly shown) [Example 325]
result: 5 to 50 nM
